experiment: Highest frequency of acute liver toxicity observed during clinical trials, expressed as a percentage. [column '% AIGUE' in source]; conditions: human
As shown below, each of these compounds has a reported Hepatotoxicity (acute) value.
ASSAY_ENDPOINT: Hepatotoxicity (acute) (%)

• C[C@@H](CN1CC(=O)NC(=O)C1)N1CC(=O)NC(=O)C1 = 0
• CCOC(Nc1ccc(C(=O)O)cc1)C(=O)c1ccc(-c2ccccc2)cc1 (stereo not given) = 0
• Clc1ccc(COC(Cn2ccnc2)c2ccc(Cl)cc2Cl)cc1 (stereo not given) = 0
• C[C@@H]1[C@H](O)[C@@H](C)/C=C/C=C/C=C/C=C/C=C/C=C/C=C/[C@H](O[C@@H]2O[C@H](C)[C@@H](O)[C@H](N)[C@@H]2O)C[C@@H]2O[C@](O)(C[C@@H](O)C[C@@H](O)[C@H](O)CC[C@@H](O)C[C@@H](O)CC(=O)O[C@H]1C)C[C@H](O)[C@H]2C(=O)O = 50
• O=NN(CCCl)C(=O)NCCCl = 23

Ref: ChEMBL document CHEMBL3137667
